study-target: UniProt P0DTD1
Format: binding
condition-set: ligand occupancy after refinement (phenix.refine); crystal soaking of Mac1
parameter-measured: Refined occupancy

> print(dat)
                                   compound  parameter.measured  recorded.measurement
1  [O-][n+]1cccc(Nc2ncnc3[nH]c4cc(F)ccc4c23)c1   Refined occupancy                    34
2  O=C(Nc1ccc(C(=O)NCc2c(C(=O)O)sc3ccccc23)cc1)NC1CC1   Refined occupancy                    48
3  CCc1c[nH]c2ncc(-c3c(C(=O)O)c(C)nn3C)cc12   Refined occupancy                    28
4  O=C(NC1c2cccc(O)c2CC1C(=O)O)c1cnc2c(c1)CCCN2 (stereo not shown)   Refined occupancy                    20
5  CO[C@@H]1CN(c2ncnc3[nH]c4cc(F)ccc4c23)C[C@@H](CO)O1   Refined occupancy                    60
6  O=C(O)CC1CC(CNC(=O)c2cncc3sccc23)C1 (stereo not shown)   Refined occupancy                    48
7  O[C@H]1CCCC[C@H]1Nc1ncnc2[nH]ccc12 (relative stereo)   Refined occupancy                    26

###

study-target: SARS-CoV-2 NSP3 Mac1 (Severe acute respiratory syndrome coronavirus 2, UniProt P0DTD1)
Type: binding
condition-set: PanDDA event map, 1 minus background density correction; crystal soaking of Mac1
Quick rule: 1-BDC of at least 0.2 means True, below that means False.

> print(dat)
                                    compound  class
 1  Nc1ncnc(N2CCCC(CCC(=O)O)C2)c1Cl (stereo not drawn) [REAL250003296134]  False
 2  c1csc(CC2CCN(c3ncnc4[nH]ccc34)C2)n1 (stereo not drawn) [Compound Z6891]   True
 3  Cc1ccc(-c2nc(Cn3cnc4c(N)nc(N)nc43)cs2)o1 [Z4718398580]   True
 4  C[C@@H]1CN(c2ncnc3[nH]c4ccccc4c23)C[C@@H](CO)O1 [Z6923]  False
 5  O=C1COc2cc(C(=O)NC3c4cccc(O)c4CC3C(=O)O)ccc2N1 (stereo not drawn) [8539_0014]   True
 6  Cc1nc(Cn2cnc3c(N)nc(N)nc32)cs1 [Compound Z8569]   True
 7  O=C(Nc1ccc(C(=O)NC2c3ccccc3CC2C(=O)O)cc1)NC1CC1 (stereo not drawn) [8539_0029]  False
 8  CC1CC(C(=O)O)N1C(=O)c1cc(O)nc2ccc(F)cc12.O=C(O)C(F)(F)F (stereo not drawn) [REAL300007260658]  False
 9  O=C(O)CC1CN(c2ncnc3[nH]c4cc(F)ccc4c23)CCO1 (stereo not drawn) [LL1_0014]  False
10  CCc1c[nH]c2ncc(-c3c(C(=O)O)c(C)nn3C)cc12 [REAL250003958539]  False
11  O=C(Nc1ccc(C(=O)NCc2c(C(=O)O)[nH]c3ccccc23)cc1)NC1CC1 [Z8539_0027]   True
12  CNC(=O)Nc1ccc(C(=O)NC2c3ccccc3CC2C(=O)O)cc1 (stereo not drawn) [Z8515]  False
13  CC(O)CNc1cc(N2CC3(CCC3)C(F)(C(=O)O)C2)ncn1 (stereo not drawn) [Z5722]  False
14  O=C(NC1c2ccccc2CC1C(=O)O)c1ccc(NC(=O)C2CC2)cc1 (stereo not drawn) [Z9604]  False
15  Cc1cc(S(=O)(=O)Nc2cnc3[nH]ccc3c2)n(C2CCCC2)n1 [FRESH00010608284]  False
16  CN(CCCC(=O)O)C(=O)c1ncnc2[nH]ccc12 [REAL250002155324]  False
17  O=C(NC1c2cccc(O)c2CC1C(=O)O)c1ccc(Nn2ccnc2)cc1 (stereo not drawn) [Z8539_0011]   True
18  O=C(Nc1ccc(C(=O)N[C@H]2c3ccccc3CC[C@H]2C(=O)O)cc1)NC1CC1 [8539_0030]   True
